- experimentalDetails: in vitro
- recordedConditions: human, Caco-2, pH 7.4
property: efflux ratio at 10 μM

>>> readoutnumber("Cc1cccc2c(-c3cccc4nn(C)cc34)nn(-c3ccc(N4CCC(C(=O)O)CC4)nc3)c12")
1.2

[a] Cn1cc2c(-c3nn(-c4ccc(N5CCC(C(=O)O)CC5)nc4)c4c(C(F)(F)F)cccc34)cccc2n1
[b] Cc1cccc2c(-c3cccc4nn(C)cc34)nn(-c3ccc(N4CC5C(C4)C5C(=O)O)nc3)c12 (stereo not drawn)
Q: Thinking about recorded efflux ratio at 10 μM values, which is higher, a or b ? Reply briefly: the label of your chosen item.
A: b
(b: 2.5, a: 1.2)

* * *

- targetOrSystem: STING HAQ-variant (Homo sapiens, UniProt Q86WV6, G230A/H232R/R293Q/R71H)
- Construct: parental THP1-Blue™ ISG cell lines (which express endogenously HAQ)
- Sequence (Q86WV6 whole entry R71H/G230A/H232R/R293Q): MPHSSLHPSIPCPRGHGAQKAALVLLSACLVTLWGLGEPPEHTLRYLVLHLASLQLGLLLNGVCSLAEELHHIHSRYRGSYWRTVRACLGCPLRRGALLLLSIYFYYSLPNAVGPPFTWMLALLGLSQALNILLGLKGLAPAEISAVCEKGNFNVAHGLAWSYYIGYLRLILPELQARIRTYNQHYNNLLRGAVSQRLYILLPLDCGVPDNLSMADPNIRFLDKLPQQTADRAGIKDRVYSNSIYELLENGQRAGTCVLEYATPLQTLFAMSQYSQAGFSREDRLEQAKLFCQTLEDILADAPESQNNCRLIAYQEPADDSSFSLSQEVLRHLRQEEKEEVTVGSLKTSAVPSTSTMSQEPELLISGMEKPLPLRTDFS
- experimentalDetails: IRF-inducible SEAP reporter assay in THP1-Blue ISG cells, STING HAQ-variant
- recordedConditions: STING HAQ-variant (parental or re-introduced), 24 hours incubation
property: EC50 (nM)

>>> readoutnumber("Cc1cccc2c(-c3cccc4nn(C)cc34)nn(-c3ccc(N4CCN5C(=O)OCC5C4)nc3)c12 (stereo not drawn)")
1200
>>> readoutnumber("Cn1cc2c(-c3nn(-c4ccc(N5CC6C(C5)C6C(=O)O)nc4)c4c(Cl)cccc34)cccc2n1 (stereo not drawn)")
900
>>> readoutnumber("Cc1cccc2c(-c3cccc4nn(C)cc34)nn(-c3ccc(N4CCC(C)(C(=O)O)CC4)nc3)c12")
5200
>>> readoutnumber("Cc1c(CO)ccc2c(-c3cccc4nn(C)cc34)nn(-c3ccc(N4CC5C(C4)C5C(=O)O)nc3)c12 (stereo not drawn)")
600
>>> readoutnumber("Cc1cccc2c(-c3cccc4nn(C)cc34)nn(-c3ccc(N4CCC(N5CCCC5=O)CC4)nc3)c12")
4700

[a] Cc1cccc2c(-c3cccc4nn(C)cc34)nn(-c3ccc(N4CC5(CCN(C=O)C5)C4)nc3)c12
[b] Cc1cccc2c(-c3cccc4nn(C)cc34)nn(-c3ccc(N4CCC(C(=O)O)CC4)nc3)c12
Q: Smaller EC50 value? Options are a and b Reply briefly: the label of your chosen item.
A: b

* * *

- targetOrSystem: STING AQ-variant (Homo sapiens, UniProt Q86WV6, G230A/H232R/R293Q)
- Sequence (Q86WV6 whole entry G230A/H232R/R293Q): as the sequence (Q86WV6 whole entry R71H/G230A/H232R/R293Q) above, with H71R counted along it
- experimentalDetails: IRF-inducible SEAP reporter assay in THP1-Blue ISG cells, STING AQ-variant
- recordedConditions: 24 hours incubation
pEC50: −log10 of the molar value.
property: pEC50

Examples with answers:
>>> readoutnumber("COC(=O)C1C2CN(c3ccc(-n4nc(-c5cccc6nn(C)cc56)c5cccc(C)c54)cn3)CC21 (stereo not drawn)")
6.70
>>> readoutnumber("Cc1c(CO)ccc2c(-c3cccc4nn(C)cc34)nn(-c3ccc(N4CCC(S(C)(=O)=O)CC4)nc3)c12")
7.00
>>> readoutnumber("Cc1cccc2c(-c3cccc4nn(C)cc34)nn(-c3ccc(N4CC5(CCN(C=O)C5)C4)nc3)c12")
5.72
>>> readoutnumber("Cc1cccc2c(-c3cccc4nn(C)cc34)nn(-c3ccc(N4CCC5(CCC(=O)N5)CC4)nc3)c12")
6.70

[I] Cc1cccc2c(-c3cccc4nn(C)cc34)nn(-c3ccc(N4CCOCC4)nc3)c12
[II] CCc1cccc2c(-c3cccc4nn(C)cc34)nn(-c3ccc(N4CCC(C(=O)O)CC4)nc3)c12
[III] Cc1cccc2c(-c3cccc4nn(C)cc34)nn(-c3ccc(N4CC5C(C4)C5C(=O)O)nc3)c12 (stereo not drawn)
[IV] Cc1cccc2c(-c3cccc4nn(C)cc34)nn(-c3ccc(N4CCC(NS(C)(=O)=O)CC4)nc3)c12
[V] Cc1cccc2c(-c3cccc4nn(C)cc34)nn(-c3ccc(N4CCC(C(=O)O)CC4)nc3)c12
Q: Sort entries by pEC50 from minimum to maximum value. To answer, arrange all of the labels according to the requested order.
A: I, IV, II, V, III
